- ASSAY SYSTEM: T1, Staphylokinase (full-length Sak, sakSTAR sequence) (Staphylococcus aureus, UniProt P68802 28-163)
- T1 construct: also called wtSak; full Sak; not shown: His6, C-terminal, kept
- T1 sequence: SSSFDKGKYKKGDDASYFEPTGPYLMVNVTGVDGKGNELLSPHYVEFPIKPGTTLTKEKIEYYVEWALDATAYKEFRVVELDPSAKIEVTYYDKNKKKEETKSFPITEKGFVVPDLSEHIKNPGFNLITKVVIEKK
- ASSAY OVERVIEW: ITC; 200-400 μM peptide titrated into 8 μM Sak or SakΔN10 in the cell; 25 °C; 20 mM HEPES, pH 7.4, no salt; One Set of Sites model; at least two experiments each
- PARTICULARS: both partners purified
Bridges are numbered along the chain shown (N, C = ends). Where no end group is shown, it is not given here.
VALUE TYPE: pKd
pKd field: float, defined as -log10 of concentration (mol/L).

Data point: FKCRRWQWRMKKLGAPSITCVRRAF (disulfide 3-20, Lactoferricin B, the peptide derived by intestinal proteolysis of bovine lactoferrin; also called LfcinB) [Bovine lactoferricin] ; pKd = 4.57
